- system-tested: m-calpain (Rattus norvegicus, UniProt Q07009)
- Construct: m-calpain was purified from rat brain; from tissue; host or cells: rat brain
- Sequence (Q07009 20-700 limits assumed): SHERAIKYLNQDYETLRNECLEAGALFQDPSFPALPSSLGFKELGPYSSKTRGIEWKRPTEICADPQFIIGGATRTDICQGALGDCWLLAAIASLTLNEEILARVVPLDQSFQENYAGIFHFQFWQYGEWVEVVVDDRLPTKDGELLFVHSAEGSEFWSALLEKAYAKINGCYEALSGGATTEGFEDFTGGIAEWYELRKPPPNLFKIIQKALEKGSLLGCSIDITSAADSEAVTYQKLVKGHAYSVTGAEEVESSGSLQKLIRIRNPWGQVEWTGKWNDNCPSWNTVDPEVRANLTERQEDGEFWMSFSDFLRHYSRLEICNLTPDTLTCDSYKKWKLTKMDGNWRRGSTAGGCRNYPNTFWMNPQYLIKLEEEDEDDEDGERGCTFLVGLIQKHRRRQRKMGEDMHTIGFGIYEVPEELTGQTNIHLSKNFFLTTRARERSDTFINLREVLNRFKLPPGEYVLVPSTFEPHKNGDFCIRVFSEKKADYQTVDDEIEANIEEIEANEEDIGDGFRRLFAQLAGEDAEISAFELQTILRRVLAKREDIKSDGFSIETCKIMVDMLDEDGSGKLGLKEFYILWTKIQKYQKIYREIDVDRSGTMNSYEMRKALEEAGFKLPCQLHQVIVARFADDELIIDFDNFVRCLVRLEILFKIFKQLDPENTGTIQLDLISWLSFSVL
- Sequence (Q64537 whole entry partner): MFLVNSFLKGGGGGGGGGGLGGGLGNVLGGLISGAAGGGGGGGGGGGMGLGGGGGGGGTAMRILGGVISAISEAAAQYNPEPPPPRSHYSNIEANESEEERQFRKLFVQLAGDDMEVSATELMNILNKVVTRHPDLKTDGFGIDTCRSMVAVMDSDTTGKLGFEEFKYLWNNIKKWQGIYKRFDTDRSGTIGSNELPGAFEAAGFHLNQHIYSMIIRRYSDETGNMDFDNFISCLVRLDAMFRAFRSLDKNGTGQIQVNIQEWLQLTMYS
- assay-notes: Thiol protease inhibitory activity against m-calpain purified from rat brain
- Assay type: biochemical
- particulars: Table 4; rat brain enzyme; read-out: Inhibitory activity against m-calpain IC50
pIC50: −log10 of the molar value. Where a name gives a salt, the structure may show the parent alone.
Item-by-item account of pIC50
reported-endpoint: pIC50

> print(dat)
                                   compound  numeric.result
1  CC(C)C[C@H](NS(=O)(=O)c1ccccc1Cl)C(=O)N[C@@H](C(C)C)[C@@H](O)c1c(-c2ccccc2)c1=O [84 (No. 246)]            6.07
2  CC(C)C[C@H](NC(=O)CCC1CCCCC1)C(=O)N[C@@H](C(C)C)[C@@H](O)c1c(-c2ccccc2)c1=O [39 (No. 124)]            5.72
3  CC(C)C[C@H](NC(=O)c1c(F)cccc1F)C(=O)N[C@@H](C(C)C)[C@@H](O)c1c(-c2ccccc2)c1=O [59 (No. 175)]            5.80
4  CC(C)C[C@H](NC(=O)OCc1ccncc1)C(=O)N[C@@H](C(C)C)[C@@H](O)c1c(-c2ccccc2)c1=O [31 (No. 99), hydrochloride]            5.89
5  CC(C)C[C@H](NC(=O)CCCc1ccccc1)C(=O)N[C@@H](C(C)C)[C@@H](O)c1c(-c2ccccc2)c1=O [43 (No. 134)]            5.77
6  CC(C)CCC(=O)N[C@@H](CC(C)C)C(=O)N[C@@H](C(C)C)[C@@H](O)c1c(-c2ccccc2)c1=O [37 (No. 114)]            5.68
